I'd appreciate it if you could supply inhibition values for the items below.
target: Voltage-dependent N-type calcium channel subunit alpha-1B (Homo sapiens) (UniProt Q00975); experiment: disruptors of CaV2.2 binding to Mint1 – biochemical, HTRF (AID 2073); details: HTRF protein-protein interaction, Mint1-CaV2.2; at 20 µM; active compounds read high
Sequence (Q00975 whole entry, looked up): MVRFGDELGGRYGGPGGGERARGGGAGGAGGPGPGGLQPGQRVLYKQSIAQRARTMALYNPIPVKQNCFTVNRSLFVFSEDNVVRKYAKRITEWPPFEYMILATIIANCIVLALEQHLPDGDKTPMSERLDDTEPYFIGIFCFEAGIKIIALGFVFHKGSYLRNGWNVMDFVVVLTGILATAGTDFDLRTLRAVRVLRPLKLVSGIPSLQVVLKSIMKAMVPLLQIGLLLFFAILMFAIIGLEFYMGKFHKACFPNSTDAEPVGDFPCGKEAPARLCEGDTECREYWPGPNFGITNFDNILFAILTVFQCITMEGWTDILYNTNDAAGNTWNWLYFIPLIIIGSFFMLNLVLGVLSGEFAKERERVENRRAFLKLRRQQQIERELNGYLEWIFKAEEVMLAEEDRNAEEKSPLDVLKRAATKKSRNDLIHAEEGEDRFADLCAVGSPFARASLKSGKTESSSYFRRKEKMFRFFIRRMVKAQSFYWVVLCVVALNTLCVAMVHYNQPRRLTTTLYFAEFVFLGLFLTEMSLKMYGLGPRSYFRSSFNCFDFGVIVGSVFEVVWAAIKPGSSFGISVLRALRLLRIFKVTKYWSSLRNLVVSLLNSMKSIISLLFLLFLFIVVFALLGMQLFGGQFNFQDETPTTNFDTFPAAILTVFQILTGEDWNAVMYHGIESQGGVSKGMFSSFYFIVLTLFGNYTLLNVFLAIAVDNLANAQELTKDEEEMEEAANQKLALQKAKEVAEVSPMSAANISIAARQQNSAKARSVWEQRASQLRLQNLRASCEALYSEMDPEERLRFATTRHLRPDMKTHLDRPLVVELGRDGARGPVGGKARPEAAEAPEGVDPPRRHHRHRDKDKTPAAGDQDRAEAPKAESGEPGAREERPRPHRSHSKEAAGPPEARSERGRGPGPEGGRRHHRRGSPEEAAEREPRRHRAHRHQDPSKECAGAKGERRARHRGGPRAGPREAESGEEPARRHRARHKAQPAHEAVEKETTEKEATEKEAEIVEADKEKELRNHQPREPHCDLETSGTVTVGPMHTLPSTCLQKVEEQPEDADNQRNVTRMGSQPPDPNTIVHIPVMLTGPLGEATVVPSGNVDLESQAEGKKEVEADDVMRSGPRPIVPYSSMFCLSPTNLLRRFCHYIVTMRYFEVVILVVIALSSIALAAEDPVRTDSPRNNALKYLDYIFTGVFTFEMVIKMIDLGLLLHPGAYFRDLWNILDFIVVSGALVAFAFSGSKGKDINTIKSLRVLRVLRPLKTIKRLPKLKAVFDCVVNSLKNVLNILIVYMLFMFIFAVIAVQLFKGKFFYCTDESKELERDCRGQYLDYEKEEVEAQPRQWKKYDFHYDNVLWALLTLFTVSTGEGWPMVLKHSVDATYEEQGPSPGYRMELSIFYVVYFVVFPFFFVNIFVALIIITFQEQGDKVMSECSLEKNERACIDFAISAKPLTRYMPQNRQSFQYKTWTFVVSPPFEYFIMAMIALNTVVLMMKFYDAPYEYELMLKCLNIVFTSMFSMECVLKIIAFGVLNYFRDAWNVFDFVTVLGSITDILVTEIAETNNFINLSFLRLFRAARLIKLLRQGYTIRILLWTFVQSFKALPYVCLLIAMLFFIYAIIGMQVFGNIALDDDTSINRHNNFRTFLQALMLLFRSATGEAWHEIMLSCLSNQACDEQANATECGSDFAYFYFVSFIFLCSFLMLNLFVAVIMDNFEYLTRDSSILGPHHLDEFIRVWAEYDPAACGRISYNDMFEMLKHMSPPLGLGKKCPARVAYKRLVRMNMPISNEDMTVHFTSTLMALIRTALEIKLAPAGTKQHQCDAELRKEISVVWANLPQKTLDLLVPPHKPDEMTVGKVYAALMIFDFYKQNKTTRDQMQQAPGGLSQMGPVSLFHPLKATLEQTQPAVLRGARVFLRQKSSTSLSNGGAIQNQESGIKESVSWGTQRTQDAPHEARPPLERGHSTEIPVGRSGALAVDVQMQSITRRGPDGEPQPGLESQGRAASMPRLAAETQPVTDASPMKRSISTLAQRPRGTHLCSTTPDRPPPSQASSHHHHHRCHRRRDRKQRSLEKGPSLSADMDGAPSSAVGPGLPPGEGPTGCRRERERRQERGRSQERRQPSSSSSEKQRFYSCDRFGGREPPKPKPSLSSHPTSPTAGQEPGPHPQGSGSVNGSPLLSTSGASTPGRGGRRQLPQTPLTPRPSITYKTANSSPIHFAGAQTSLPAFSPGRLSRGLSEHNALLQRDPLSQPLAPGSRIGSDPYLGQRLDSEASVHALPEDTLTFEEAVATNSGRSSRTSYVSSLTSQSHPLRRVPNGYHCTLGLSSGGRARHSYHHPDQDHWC
The whole screen tested about 290,000 compounds, of which about 570 (0.2%) were called active. Inconclusive results (about 1%) are left out. The entries come from a sample that favours actives as a whole.
One number for each entry, in %.

Some solved entries appear below for comparison.
- Molecule: "Cc1nn(C)c(Cl)c1CN1CCC(CO)(CC2CCCCO2)CC1 (stereo not given)"
  Unit Tag: "%"
  inhibition: 6.5
- Molecule: "COc1cccc(/C=C(/CC(=O)Nc2ccc(N3CCOCC3)cc2)c2nc3ccccc3s2)c1"
  Unit Tag: "%"
  inhibition: 59.9
- Molecule: "O=C1CCCC(=NCc2ccco2)C1"
  Unit Tag: "%"
  inhibition: -7.5
- Molecule: "Cc1ccc(NC(=O)Cn2c(C)cc(C)c(C#N)c2=O)c(Cl)c1"
  Unit Tag: "%"
  inhibition: 2.7
- Molecule: "Cn1c(=O)c2c(-c3ccc(C(C)(C)C)cc3)n(CC3CCCO3)cc2n(C)c1=O (stereo not given)"
  Unit Tag: "%"
  inhibition: 8.1

Provide the reported inhibition of each entry below, same order.
1. Nc1c(Cl)ncnc1N/N=C/c1ccncc1
2. COc1ccc(/C=C(/CC(=O)Nc2ccccc2)c2nc3ccccc3s2)cc1
3. CCOC(=O)CNc1nc(Cl)nc(N2CCCCC2)n1
4. COc1ccc(NC2CCCN(C(=O)c3csc(C(C)C)n3)C2)cc1OC (stereo not given)
5. COc1nc2ccccc2nc1OC

**A:**
-9.8
13
6.2
-10
-4.1

Here are 3 molecules. What values of inhibition were reported for them?
1. Cc1cc(Br)ccc1OCCN1CCCC1
2. Cc1cc(C)c2c(=O)n(CC(=O)Nc3ccc(Cl)cc3)sc2n1
3. c1coc(CN=C2NC(=NCc3ccco3)c3ccccc32)c1

**A:**
1: 1.2; 2: 23.2; 3: 18.7

Your task in this section: give inhibition for each listed record.
1. CCOC(=O)CSc1nnc(-c2cccnc2)n1C
2. Oc1ccc(N=C/C=C/c2cccc(Br)c2)cc1-c1nc2ccccc2s1
3. CCCNC(=O)Cn1sc2nc(C)cc(C)c2c1=O

**A:**
[0.8, 66.6, 88.4]
